Data credit: paper PMC12051620

- assay system: human melanopsin L207^5.42F mutant (Homo sapiens, UniProt Q9UHM6, L239F)
- Construct: the C-terminal amino acid residues (94, 140, 200, 214, 296, and 308 residues)
- Sequence (Q9UHM6 1-384 L239F limits assumed): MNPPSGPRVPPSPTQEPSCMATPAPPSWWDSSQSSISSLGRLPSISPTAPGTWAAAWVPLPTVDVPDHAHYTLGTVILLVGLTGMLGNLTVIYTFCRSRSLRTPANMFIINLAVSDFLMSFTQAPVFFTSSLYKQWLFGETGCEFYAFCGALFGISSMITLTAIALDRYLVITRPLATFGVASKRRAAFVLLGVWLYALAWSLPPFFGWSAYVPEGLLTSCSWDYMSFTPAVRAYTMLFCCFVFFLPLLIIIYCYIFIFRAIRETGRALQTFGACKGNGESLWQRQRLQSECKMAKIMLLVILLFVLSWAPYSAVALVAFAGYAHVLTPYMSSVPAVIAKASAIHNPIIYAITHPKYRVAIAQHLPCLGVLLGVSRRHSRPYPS
- assay text: GsX GloSensor assay with Gsα/q11
- condition: COS-1 cells; n = 3; read-out: IC50, reduction in peak cAMP responses upon Gsα/q11 activation
test readout: IC50 (nM)
Just the number in nM, nothing appended.

The measured IC50 associated with COc1ccc(S(=O)(=O)N2CCCCC2)cc1C [AA92593] reads 350

====

- assay system: lanceolatum melanopsin F189^ECL2W/I207^5.42F mutant (Branchiostoma lanceolatum, UniProt A0A2Z4C1D4, F188W/I204F)
- Sequence (A0A2Z4C1D4 entry or part of it F188W/I204F): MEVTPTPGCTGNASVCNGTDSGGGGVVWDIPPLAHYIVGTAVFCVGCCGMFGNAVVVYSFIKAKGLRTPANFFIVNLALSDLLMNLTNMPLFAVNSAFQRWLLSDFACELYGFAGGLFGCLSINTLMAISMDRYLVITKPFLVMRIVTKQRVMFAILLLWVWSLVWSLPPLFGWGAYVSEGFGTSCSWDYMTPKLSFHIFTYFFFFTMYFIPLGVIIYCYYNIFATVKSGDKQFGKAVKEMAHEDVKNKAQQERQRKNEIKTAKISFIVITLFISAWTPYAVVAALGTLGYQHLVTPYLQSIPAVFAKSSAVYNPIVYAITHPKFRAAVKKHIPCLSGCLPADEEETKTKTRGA
- assay text: GsX GloSensor assay with Gsα/q11
- Excerpt: We assessed the effect of the antagonist on the mutants using the GsX GloSensor assay with Gsα/q11. […] Furthermore, the double substitution F189^ECL2W/I207^5.42F further increased the susceptibility of the lanceolatum melanopsin to the antagonist by ∼88% (Fig. 7, G, H, and I). The AA92593-induced inhibition of the double mutant F189^ECL2W/I207^5.42F was as efficient as that of human melanopsin (Fig. 7I). […]
test readout: pIC50
As a rule, pIC50 stands for the negative log10 of the concentration, concentration in M.

The measured pIC50 associated with COc1ccc(S(=O)(=O)N2CCCCC2)cc1C reads 5.85
